Molecular target: Nav1.7 (or SCN9A) channel (Homo sapiens, UniProt Q15858)
Sequence (Q15858 whole entry): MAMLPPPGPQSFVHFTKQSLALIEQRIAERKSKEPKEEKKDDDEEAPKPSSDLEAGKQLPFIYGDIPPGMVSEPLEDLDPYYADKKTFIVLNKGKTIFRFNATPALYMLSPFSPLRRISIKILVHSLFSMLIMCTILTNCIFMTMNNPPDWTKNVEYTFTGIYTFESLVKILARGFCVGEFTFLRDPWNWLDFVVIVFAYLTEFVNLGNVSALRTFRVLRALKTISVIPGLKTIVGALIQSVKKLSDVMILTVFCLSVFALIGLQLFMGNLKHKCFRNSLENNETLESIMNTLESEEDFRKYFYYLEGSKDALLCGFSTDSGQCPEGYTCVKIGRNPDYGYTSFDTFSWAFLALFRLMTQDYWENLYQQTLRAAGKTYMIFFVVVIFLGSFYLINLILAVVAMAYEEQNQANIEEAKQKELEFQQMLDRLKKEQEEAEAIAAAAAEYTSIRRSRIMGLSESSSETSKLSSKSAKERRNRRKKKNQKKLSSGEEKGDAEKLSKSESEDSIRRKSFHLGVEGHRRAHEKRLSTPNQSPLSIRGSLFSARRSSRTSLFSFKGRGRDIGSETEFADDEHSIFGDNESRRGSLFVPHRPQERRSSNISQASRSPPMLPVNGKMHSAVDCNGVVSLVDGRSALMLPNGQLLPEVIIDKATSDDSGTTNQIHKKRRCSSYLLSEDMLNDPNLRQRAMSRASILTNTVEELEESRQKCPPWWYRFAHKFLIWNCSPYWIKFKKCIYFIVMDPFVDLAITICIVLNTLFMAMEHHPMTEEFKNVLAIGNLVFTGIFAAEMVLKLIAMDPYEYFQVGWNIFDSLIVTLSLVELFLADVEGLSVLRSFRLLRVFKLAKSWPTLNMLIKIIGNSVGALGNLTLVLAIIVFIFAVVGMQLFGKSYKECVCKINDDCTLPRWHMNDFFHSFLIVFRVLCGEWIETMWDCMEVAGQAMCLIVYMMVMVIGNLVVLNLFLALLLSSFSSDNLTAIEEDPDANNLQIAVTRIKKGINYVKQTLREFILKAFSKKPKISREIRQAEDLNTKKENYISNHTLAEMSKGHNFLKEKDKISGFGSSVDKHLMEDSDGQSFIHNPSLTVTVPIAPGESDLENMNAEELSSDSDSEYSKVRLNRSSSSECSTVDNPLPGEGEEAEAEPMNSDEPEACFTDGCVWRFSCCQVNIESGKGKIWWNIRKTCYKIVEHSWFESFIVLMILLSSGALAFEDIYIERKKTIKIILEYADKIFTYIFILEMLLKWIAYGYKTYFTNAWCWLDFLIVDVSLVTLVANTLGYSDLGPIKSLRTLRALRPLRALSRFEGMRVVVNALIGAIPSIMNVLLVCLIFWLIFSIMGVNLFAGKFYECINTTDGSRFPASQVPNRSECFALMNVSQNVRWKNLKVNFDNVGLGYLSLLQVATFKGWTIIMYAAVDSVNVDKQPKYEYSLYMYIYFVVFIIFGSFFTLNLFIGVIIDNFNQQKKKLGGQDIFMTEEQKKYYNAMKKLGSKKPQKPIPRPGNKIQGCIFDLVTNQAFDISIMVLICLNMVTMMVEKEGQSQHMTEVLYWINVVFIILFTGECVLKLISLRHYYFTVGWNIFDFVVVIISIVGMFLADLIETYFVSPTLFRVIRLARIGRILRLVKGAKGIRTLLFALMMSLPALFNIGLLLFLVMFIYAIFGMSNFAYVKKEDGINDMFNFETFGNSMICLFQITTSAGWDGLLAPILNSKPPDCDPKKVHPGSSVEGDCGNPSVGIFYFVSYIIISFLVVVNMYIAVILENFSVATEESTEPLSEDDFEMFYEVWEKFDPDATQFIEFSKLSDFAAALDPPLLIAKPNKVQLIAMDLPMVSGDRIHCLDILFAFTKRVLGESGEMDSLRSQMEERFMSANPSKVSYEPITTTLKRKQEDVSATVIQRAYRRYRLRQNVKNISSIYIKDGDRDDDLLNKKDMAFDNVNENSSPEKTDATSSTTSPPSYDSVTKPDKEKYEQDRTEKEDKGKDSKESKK
Assay: Nav1.7 (hSCN9A) channel block, PatchXpress whole-cell electrophysiology
Conditions: PatchXpress platform; HEK cells stably transfected with hSCN9A; estimated IC-50 calculated from single point % inhibition at V1/2; read-out: Nav1.7 EIC50
property: IC50

Solved cases (4 shown):
>>> test_result("CS(=O)(=O)NC(=O)c1cc(Cl)c(COc2cnc(OCCC(F)(F)F)c(Cl)c2)cc1F")
"25.8 nM"
>>> test_result("CS(=O)(=O)NC(=O)c1cc(Cl)c(COc2cnc(OCC(F)(F)C(F)F)c(Cl)c2)cc1F")
"9.1 nM"
>>> test_result("CS(=O)(=O)NC(=O)c1cc(Cl)c(COc2cnc(OCC(F)(F)F)c(Cl)c2)cc1F")
"42.5 nM"
>>> test_result("CS(=O)(=O)NC(=O)c1cc(F)c(COc2cncc(Cl)c2)cc1F")
"> 3000 nM"

Hello, I would appreciate it if you could give IC50 for each entry below.
1. CS(=O)(=O)NC(=O)c1cc(F)c(COc2cnc(C(F)(F)F)c(Cl)c2)cc1F
2. CC(Oc1ncc(OCc2cc(F)c(C(=O)NS(C)(=O)=O)cc2F)cc1Cl)C(F)(F)F (centres unmarked)
3. CS(=O)(=O)NC(=O)c1cc(F)c(COc2cnc(OCC3CC(F)(F)C3)c(Cl)c2)cc1F
4. CS(=O)(=O)NC(=O)c1cc(Cl)c(COc2cnc(C3CC3)c(OC(F)F)c2)cc1F

**A:**
843 nM
42 nM
730 nM
356 nM

###

Biological target: Nav1.7 (or SCN9A) channel (Homo sapiens)
Experiment: Nav1.7 (hSCN9A) channel block, PatchXpress whole-cell electrophysiology
Settings: PatchXpress platform; HEK cells stably transfected with hSCN9A; estimated IC-50 calculated from single point % inhibition at V1/2; read-out: Nav1.7 EIC50
property: IC50 (nM)
Give bare numbers, in nM.

>>> test_result("CS(=O)(=O)NC(=O)c1cc(F)c(COc2cnc(OCC3CC3)c(Cl)c2)cc1F")
156
>>> test_result("CS(=O)(=O)NC(=O)c1cc(F)c(COc2cnc(OCC(F)(F)F)c(Cl)c2)cc1F")
150
>>> test_result("[2H]C(C)(C)Oc1ncc(OCc2cc(F)c(C(=O)NS(C)(=O)=O)cc2F)cc1Cl")
140
>>> test_result("[2H]C(C)(C)Oc1ncc(OCc2cc(F)c(C(=O)NS(C)(=O)=O)cc2Cl)cc1Cl")
82.2
>>> test_result("CC1(COc2ncc(OCc3cc(F)c(C(=O)NS(C)(=O)=O)cc3F)cc2Cl)CC1")
66.8
>>> test_result("CC(C)(C)Oc1ncc(OCc2cc(F)c(C(=O)NS(C)(=O)=O)cc2F)cc1Cl")
80.6
>>> test_result("[2H]C([2H])([2H])C([2H])(Oc1ncc(OCc2cc(F)c(C(=O)NS(C)(=O)=O)cc2F)cc1Cl)C([2H])([2H])[2H]")
161

The recorded IC50 for entry "CC(C)(F)COc1ncc(OCc2cc(F)c(C(=O)NS(C)(=O)=O)cc2F)cc1Cl" equals 81.4
